Molecular target: AR (Homo sapiens)
Construct: Degradation of AR; Cellular potency; host or cells: VCaP cells
Sequence (P10275 1-920): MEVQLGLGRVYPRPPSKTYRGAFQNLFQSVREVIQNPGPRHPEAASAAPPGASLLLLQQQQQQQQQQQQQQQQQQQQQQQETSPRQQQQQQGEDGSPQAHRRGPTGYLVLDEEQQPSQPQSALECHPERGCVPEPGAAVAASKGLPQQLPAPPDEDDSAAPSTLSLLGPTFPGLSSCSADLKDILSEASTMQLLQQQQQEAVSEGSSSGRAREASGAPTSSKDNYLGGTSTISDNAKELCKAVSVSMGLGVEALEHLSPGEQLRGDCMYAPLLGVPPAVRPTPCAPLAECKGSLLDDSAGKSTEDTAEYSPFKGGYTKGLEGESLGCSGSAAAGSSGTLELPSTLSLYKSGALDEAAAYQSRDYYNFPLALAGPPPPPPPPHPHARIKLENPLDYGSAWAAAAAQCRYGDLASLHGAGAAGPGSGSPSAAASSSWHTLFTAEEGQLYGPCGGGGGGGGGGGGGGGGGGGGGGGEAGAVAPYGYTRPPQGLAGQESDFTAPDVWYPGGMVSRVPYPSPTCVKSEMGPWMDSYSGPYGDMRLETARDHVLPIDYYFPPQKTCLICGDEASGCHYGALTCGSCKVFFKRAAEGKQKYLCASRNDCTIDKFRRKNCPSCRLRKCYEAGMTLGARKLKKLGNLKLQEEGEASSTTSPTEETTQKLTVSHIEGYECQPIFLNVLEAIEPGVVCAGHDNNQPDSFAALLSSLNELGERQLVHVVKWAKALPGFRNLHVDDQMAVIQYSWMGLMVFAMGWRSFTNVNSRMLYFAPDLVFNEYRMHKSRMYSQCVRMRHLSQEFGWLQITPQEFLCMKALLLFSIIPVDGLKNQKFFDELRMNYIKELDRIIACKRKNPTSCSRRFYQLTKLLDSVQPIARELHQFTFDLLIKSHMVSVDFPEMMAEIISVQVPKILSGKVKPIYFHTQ
Assay: Degradation of AR in VCaP cells
Format: cell-based
Settings: VCaP cells
Experimental: Biological Assays. LNCaP and VCaP cells used were purchased from American Type Culture Collection (ATCC). LNCaP were grown in RPMI 1640 (Invitrogen) and VCaP cells were grown in DMEM with Glutamax (Invitrogen). All of the cells were supplemented with 10% fetal bovine serum (Invitrogen) at 37° C. in a humidified 5% CO2 incubator.
# DC50 annotations

Recorded results for 4 compounds are shown here.
C[C@H]1CC2(CCN(c3ccc(N4CCN(C5CN(c6ccc7c(c6)C(=O)N(C6CCC(=O)NC6=O)C7=O)C5)CC4)cc3F)CC2)CN1c1ccc(C#N)c(Cl)c1 (some centres unmarked); < 1 nM
C[C@H]1CC2(CCN(c3ccc(OC4CCN(C5CN(c6cc7c(cc6F)C(=O)N(C6CCC(=O)NC6=O)C7=O)C5)CC4)cc3)CC2)CN1c1ccc(C#N)c(Cl)c1 (some centres unmarked); < 1 nM
C[C@H]1CC2(CCN(c3ncc(C(=O)N4CCC(N5Cc6cc7c(cc6C5)C(=O)N(C5CCC(=O)NC5=O)C7=O)CC4)s3)CC2)CN1c1ccc(C#N)c(Cl)c1 (some centres unmarked); < 10 nM
C[C@H]1CC2(CCN(c3ccc(CN4CCC(N5CCN(c6cc7c(cc6F)C(=O)N(C6CCC(=O)NC6=O)C7=O)CC5)CC4)cn3)CC2)CN1c1ccc(C#N)c(Cl)c1 (some centres unmarked); < 10 nM

Field: next compound
Ask | Missing value: DC50, AR (Homo sapiens), entry C[C@H]1CC2(CCN(c3ccc(S(=O)(=O)N4CCN(C5CCN(c6ccc7c(c6)C(=O)N(C6CCC(=O)NC6=O)C7=O)CC5)CC4)cc3)CC2)CN1c1ccc(C#N)c(Cl)c1 (some centres unmarked) . Fill in?
Reply | < 1 nM

====

Below: a set of entries, each annotated with reported DC50.
Target: AR (Homo sapiens)
Construct: Degradation of AR; Cellular potency; host or cells: VCaP cells
Assay: Degradation of AR in VCaP cells
Type: cell-based
Settings: VCaP cells

Here's what some known entries look like.
C[C@H]1CC2(CCN(c3ccc(CN4CCC(N5CCN(c6cc7c(cc6F)C(=O)N(C6CCC(=O)NC6=O)C7=O)CC5)CC4)nn3)CC2)CN1c1ccc(C#N)c(Cl)c1 (some centres unmarked); < 0.001 µM
C[C@H]1CC2(CCN(c3ccc(C(=O)N4CCN(C5CN(c6ccc7c(c6)C(=O)N(C6CCC(=O)NC6=O)C7=O)C5)CC4)s3)CC2)CN1c1ccc(C#N)c(Cl)c1 (some centres unmarked); < 0.01 µM

Ask | State its DC50 on AR (Homo sapiens): C[C@H]1CC2(CCN(c3ccc(CN4CC(C5CCN(c6ccc7c(c6)C(=O)N(C6CCC(=O)NC6=O)C7=O)CC5)C4)cn3)CC2)CN1c1ccc(C#N)c(Cl)c1 (some centres unmarked)
Reply | < 0.01 µM

Ask | And what about the compound C[C@H]1CC2(CCN(c3ccc(CN4CCN(C5CN(c6cc7c(cc6F)C(=O)N(C6CCC(=O)NC6=O)C7=O)C5)CC4)nc3)CC2)CN1c1ccc(C#N)c(Cl)c1 (some centres unmarked) ?
Reply | < 0.001 µM

Ask | // query: C[C@H]1CC2(CCN(c3ccc(N4CCC(CN5CCN(c6ccc7c(c6)C(=O)N(C6CCC(=O)NC6=O)C7=O)CC5)CC4)cn3)CC2)CN1c1ccc(C#N)c(Cl)c1 (some centres unmarked)
Reply | < 0.01 µM

====

System: VCaP cells
Experiment: Cellular potency (IC50) in VCaP cells
Type: cell-based
Conditions: Homo sapiens, VCaP
pIC50: −log10 of the molar value.
Here, each record is paired with measured pIC50 data.

C[C@H]1CC2(CCN(c3ccc(CN4CC(C5CCN(c6ccc7c(c6)C(=O)N(C6CCC(=O)NC6=O)C7=O)CC5)C4)nc3)CC2)CN1c1ccc(C#N)c(Cl)c1 (stereo partly drawn); > 7.00
C[C@H]1CC2(CCN(c3ccc(N4CCC(OC5CN(c6ccc7c(c6)C(=O)N(C6CCC(=O)NC6=O)C7=O)C5)CC4)cn3)CC2)CN1c1ccc(C#N)c(Cl)c1 (stereo partly drawn); > 8.00
C[C@H]1CC2(CCN(c3ccc(N4CCN(CC5CN(c6ccc7c(c6)C(=O)N(C6CCC(=O)NC6=O)C7=O)C5)CC4)nc3)CC2)CN1c1ccc(C#N)c(Cl)c1 (stereo partly drawn); > 8.00
C[C@H]1CC2(CCN(c3ccc(C(=O)N4CCC(N5Cc6cc7c(cc6C5)C(=O)N(C5CCC(=O)NC5=O)C7=O)CC4)s3)CC2)CN1c1ccc(C#N)c(Cl)c1 (stereo partly drawn); > 7.00
C[C@H]1CC2(CCN(c3cnc(N4CCN(CC5CN(c6ccc7c(c6)C(=O)N(C6CCC(=O)NC6=O)C7=O)C5)CC4)nc3)CC2)CN1c1ccc(C#N)c(Cl)c1 (stereo partly drawn); > 8.00

Now let's try a different one.
Ask | Param item = C[C@H]1CC2(CCN(c3ccc(CN4CCC(C5CCN(c6ccc7c(c6)C(=O)N(C6CCC(=O)NC6=O)C7=O)CC5)CC4)nc3)CC2)CN1c1ccc(C#N)c(Cl)c1 (stereo partly drawn) ; retrieve measured pIC50.
Reply | > 7.00

====

List of DC50 values.
Target: AR (Homo sapiens)
Construct: Degradation of AR; Cellular potency; host or cells: VCaP cells
Assay: Degradation of AR in VCaP cells
Assay type: cell-based
Conditions: VCaP cells

// solved cases for DC50 follow
C[C@H]1CC2(CCN(c3ccc(OC4CN(C5CCN(c6ccc7c(c6)C(=O)N(C6CCC(=O)NC6=O)C7=O)CC5)C4)cn3)CC2)CN1c1ccc(C#N)c(Cl)c1 (stereo partly drawn); < 100 nM
C[C@H]1CC2(CCN(c3ccc(C4CCN(CC5CN(c6ccc7c(c6)C(=O)N(C6CCC(=O)NC6=O)C7=O)C5)CC4)cc3)CC2)CN1c1ccc(C#N)c(Cl)c1 (stereo partly drawn); < 1 nM
C[C@H]1CC2(CCN(c3ccc(N4CCC(N(C)C5CN(c6ccc7c(c6)C(=O)N(C6CCC(=O)NC6=O)C7=O)C5)CC4)cn3)CC2)CN1c1ccc(C#N)c(Cl)c1 (stereo partly drawn); < 1 nM
C[C@H]1CC2(CCN(c3ccc(N4CC(N(C)C5CN(c6ccc7c(c6)C(=O)N(C6CCC(=O)NC6=O)C7=O)C5)C4)cc3)CC2)CN1c1ccc(C#N)c(Cl)c1 (stereo partly drawn); < 100 nM
C[C@H]1CC2(CCN(c3ccc(N4CCC(N(C)C5CN(c6ccc7c(c6)C(=O)N(C6CCC(=O)NC6=O)C7=O)C5)CC4)nc3)CC2)CN1c1ccc(C#N)c(Cl)c1 (stereo partly drawn); < 10 nM
C[C@H]1CC2(CCN(c3ccc(S(=O)(=O)C4CCN(C5CCN(c6ccc7c(c6)C(=O)N(C6CCC(=O)NC6=O)C7=O)CC5)CC4)cc3)CC2)CN1c1ccc(C#N)c(Cl)c1 (stereo partly drawn); < 1 nM

Ask | Lab note: need DC50 with AR (Homo sapiens) for entry C[C@H]1CC2(CCN(c3ccc(OC4CN(C5CN(c6ccc7c(c6)C(=O)N(C6CCC(=O)NC6=O)C7=O)C5)C4)cn3)CC2)CN1c1ccc(C#N)c(Cl)c1 (stereo partly drawn) , please look it up.
Reply | < 1 nM

Ask | What about this compound? C[C@H]1CC2(CCN(c3ccc(N4CCC(OC5CN(c6ccc7c(c6)C(=O)N(C6CCC(=O)NC6=O)C7=O)C5)CC4)cc3)CC2)CN1c1ccc(C#N)c(Cl)c1 (stereo partly drawn)
Reply | < 1 nM

Ask | Same lookup for C[C@H]1CC2(CCN(c3ccc(N4CCN(CC5CN(c6ccc7c(c6)C(=O)N(C6CCC(=O)NC6=O)C7=O)C5)CC4)cc3F)CC2)CN1c1ccc(C#N)c(Cl)c1 (stereo partly drawn) , please.
Reply | < 1 nM

Ask | Quick one: C[C@H]1CC2(CCN(c3cnc(N4CCN(CC5CCN(c6ccc7c(c6)C(=O)N(C6CCC(=O)NC6=O)C7=O)CC5)CC4)cn3)CC2)CN1c1ccc(C#N)c(Cl)c1 (stereo partly drawn)
Reply | < 10 nM

Ask | Request: C[C@H]1CC2(CCN(c3ccc(C4CCN(CC5CN(c6ccc7c(c6)C(=O)N(C6CCC(=O)NC6=O)C7=O)C5)CC4)nc3)CC2)CN1c1ccc(C#N)c(Cl)c1 (stereo partly drawn)
Reply | < 1 nM

Ask | Let us now turn to C[C@H]1CC2(CCN(c3ccc(CN4CCN(C5CN(c6cc7c(cc6F)C(=O)N(C6CCC(=O)NC6=O)C7=O)C5)CC4)nn3)CC2)CN1c1ccc(C#N)c(Cl)c1 (stereo partly drawn)
Reply | < 1 nM

The measured values listed here are drawn from patent US20240190874A1.
